assay: NCI Yeast Anticancer Drug Screen. Data for the rad50 strain (AID 155); details: S. cerevisiae rad50 strain growth inhibition; at 50.0 µM
About 79,000 compounds went through this panel and 15% of them were active in at least one assay; those are over-represented in the sample as a whole. Activity calls are given as the source filed them. Cut-off read from the data, not from the text of the source: active = growth inhibition above about 70%; inactive = the rest.
Answer with one of the outcomes given here: yes (active), no (inactive)

Prompt: Entry `O=C1NC(=O)C(c2ccsc2)C(=O)N1` : call = ?
Completion: no

Prompt: Tell me the assay call for `COC(=O)Nc1nc2ccccc2[nH]1` please.
Completion: no

Prompt: Record request — test call for CCC1(c2ccccc2)C(=O)N(C)C(=O)N(CCCl)C1=O (stereo not drawn)
Completion: no

Prompt: Identify the outcome logged in this assay for the compound shown: `CN(c1ccccc1)[N+](=O)[O-]`
Completion: no

Prompt: Record request — test call for `OC[CH2][Hg][I]`
Completion: yes

Prompt: Please state the recorded outcome for this compound: C=C(C(=O)OC1CC2CCC(C1)[N+]2(C)[O-])c1ccccc1 (stereo not drawn)
Completion: no

Prompt: What classification did ClCCN(Cc1ccccc1)CC1COc2ccccc2O1 (stereo not drawn) end up with in this test?
Completion: yes

Prompt: // param item: `COc1ccc(-c2nc(-c3ccc(N=Cc4ccc(N(CCCl)CCCl)cc4)cc3)cs2)cc1` ; yields the recorded call
Completion: no

Prompt: What did the test return for `CCOc1c(Br)cc(N=Cc2ccc(N(CCCl)CCCl)c(OC)c2)cc1Br` ?
Completion: yes

Prompt: Recorded call for CC1=CC23C(COC(=O)C24CO4)C(C(=O)O)=CC3C1C (stereo not drawn) (tested in a mixture with another compound) ?
Completion: no

Prompt: Would you mind telling me which call this test gave [N-]=[N+]=NC1C2CC3CC(C2)CC1C3 (stereo not drawn) ?
Completion: no

Prompt: Query: recorded result category for `O=C(O)CCCNSc1ccccc1[N+](=O)[O-]` in this test
Completion: yes

Prompt: Hi, do you know how CC12CCC(=O)C=C1CCC1C2CCC2(C)C(O[Si](C)(C)OC3CCC4C5CCC6=CC(=O)CCC6(C)C5CCC34C)CCC12 (stereo not drawn) came out in this test?
Completion: yes

Prompt: Outcome? O=C1NC(=O)C(Br)C(=O)N1 (tested in a mixture with another compound)
Completion: no

Prompt: Look up the recorded call for `CC(=O)[O-].CC(=O)[O-].CC(=O)[O-].CC(=O)[O-].[Mo+2].[Mo+2]` in this test.
Completion: no

Prompt: Hi team, can someone confirm the assay call for C=C1CCC2CC1C2(C)C (stereo not drawn) (tested in a mixture with another compound) ?
Completion: no

Prompt: # outcome recorded in this test, key = `O=[N+]([O-])c1ccc([N+](=O)[O-])c2ccccc12`
Completion: yes

Prompt: Called result for C/C=C1/CC(C)C(C)(O)C(=O)OCC2CCN3CCC(OC1=O)C23 (stereo not drawn)
Completion: no

Prompt: // outcome(item) with item = `CN1C(=O)C(=Cc2cccc([N+](=O)[O-])c2)C(=O)N(C)C1=O`
Completion: no

Prompt: Test call for this compound, please: `CCN(CCCl)c1cc(CN(C)C)cc(NC(=O)c2cc(C(=O)Nc3cc(CN(C)C)cc(N(CC)CCCl)c3)n(C)n2)c1`
Completion: no

Prompt: Hi team, can someone confirm the assay call for `CN(C)c1ccc(C(=O)CCCN2CCC3(CC2)C(=O)NCN3c2ccccc2)cc1` ?
Completion: no

Prompt: Could you please tell me the result logged for `CC(C)[S-].CC(C)[S-].[Pt+2].c1ccc([PH+](c2ccccc2)c2ccccc2)cc1.c1ccc([PH+](c2ccccc2)c2ccccc2)cc1` in this assay?
Completion: yes

Prompt: Could you check what this test reported for O=C1CC(c2cccc(Br)c2)n2cccc21 (stereo not drawn) ?
Completion: no

Prompt: Given O=C(c1ccccc1)C1C(C(=O)c2ccccc2)N1C1CCCCC1 (stereo not drawn) , state the outcome it received in this test.
Completion: yes

Prompt: Each compound tested received a call. Report the one for COc1ccc2c(c1)CCC(N1CCCC(=O)C1)C2 (stereo not drawn) .
Completion: no

Prompt: // return assay outcome for `N#CCCCCCBr`
Completion: no

Prompt: Status in this test for `CC(=O)CC(C)=O.CC(=O)CC(C)=O.CC(=O)CC(C)=O.[Sm]` ?
Completion: no

Prompt: Please share the test call associated with O=C(NC(Cc1ccccc1)C(=O)N(CCCl)CCCl)c1ccccc1 (stereo not drawn) .
Completion: no

Prompt: Test call for this compound, please: `ClCCCCl`
Completion: no

Prompt: Tell me the recorded outcome of this test for CC(N)Cc1ccc(Cl)cc1 (stereo not drawn) .
Completion: no

Prompt: What call does the record list for CC([CH2][Hg][Cl])c1ccccc1 (stereo not drawn) ?
Completion: yes

Prompt: // return assay outcome for O=C(O)[C@@H]1C2CCC(C[C@@H]1O)N2C(=O)c1ccccc1 (stereo partly drawn)
Completion: no

Prompt: Assay result, entry `CC(=O)CC(C)=O.CC(=O)CC(C)=O.[Mn]` — outcome?
Completion: no

Prompt: Identify the outcome logged in this assay for the compound shown: CCC[CH2][Sn]1([CH2]CCC)[O]CC(Cc2ccccc2)[O]1 (stereo not drawn)
Completion: yes

Prompt: I'd appreciate the recorded outcome for CCCC(C)(COC(N)=O)COC(=O)NC1CC1 (stereo not drawn) from this test.
Completion: no

Prompt: // return assay outcome for `Nc1ccccc1C(=O)O`
Completion: no

Prompt: Hi team, can someone confirm the assay call for `CC1(C)CN=C(Nc2ccc(F)c(F)c2)S1` ?
Completion: no

Prompt: Could you please tell me the result logged for `COc1ccc(C[As+](c2ccccc2)(c2ccccc2)c2ccccc2)cc1` in this assay?
Completion: yes
